tested on: NCI-H522 lung; test: NCI tumour cell line growth inhibition, 48 h

SMI	TGI
Cc1cccc(N2C(=O)C(=O)C(c3nc4ccccc4s3)C(=O)C2=O)c1C	> 100 µM
Cc1ccnc2sc3ccccc3c(=O)c12	99.2 µM
N#CI1OC(C(F)(F)F)(C(F)(F)F)c2ccccc21	27.3 µM
COC(=O)c1cc2c(cc1Cl)SC(N(N(C)C)S(=O)(=O)c1ccc(Cl)cc1)=NS2(=O)=O	30.2 µM
CCOC(=O)CN(Cc1ccccc1)Cc1c(C(=O)c2ccccc2)c2ccccc2n1C(=O)c1ccccc1	> 100 µM
CC1=N/C(=C\c2ccc([N+](=O)[O-])cc2)C(=O)O1	> 100 µM
Clc1cccc(N=C/C=C/Nc2cccc(Cl)c2)c1	29.3 µM
C=CCc1cccc2cc(C(=O)Nc3nc(C45CC6CC(CC(C6)C4)C5)cs3)c(=O)oc12	> 100 µM
COc1cccc2c(Nc3ccc(C(=O)NCCN(C)C)cc3)cc(-c3ccccc3)nc12	32.4 µM
O=C(O/N=C1/CCCC/C1=C\c1ccccc1)c1ccc(Cl)cc1	> 100 µM
CC1=CC(=O)/C(=C/N2CCNC2=S)C(=O)O1	> 100 µM
Cc1nc2ccccc2cc1C[N+]12CN3CN(CN(C3)C1)C2	38.2 µM
Cc1nc2sccn2c1C(=O)OCCOCCOCCOCCOC(=O)c1c(C)nc2sccn12	> 100 µM
COc1ccc(/C=C/C(C(=O)O)C(=O)O)cc1	> 100 µM

Where do the numbers come from? From PubChem BioAssay (NCI).
